The entries below come with measured Minimum inhibitory concentration (MIC) values attached.
tested on: P. aeruginosa PA01; experiment: Minimum inhibitory concentration (MIC); settings: P. aeruginosa PA01, PAβN + (40 μg/mL)

{"compound": "Cc1nn2c(=O)cc(-c3ccc(Cl)cc3)[nH]c2c1-c1ccccc1", "Minimum inhibitory concentration (MIC) / µg/mL": 12}
{"compound": "C[C@H]1COc2c(N3CCN(C)CC3)c(F)cc3c(=O)c(C(=O)O)cn1c23 [Lev, levofloxacin, reference compound]", "Minimum inhibitory concentration (MIC) / µg/mL": 0.015}
{"compound": "Cc1nnc(SCC2=NN(c3nc4ccccc4[nH]3)C(=O)C2)s1", "Minimum inhibitory concentration (MIC) / µg/mL": 48}
{"compound": "Clc1cc(Br)ccc1-c1ccc(CNCC2CCNCC2)o1", "Minimum inhibitory concentration (MIC) / µg/mL": 24}
